Can you tell me z-score for the items I'm about to list?
assay: PSAC antagonists in infected red cells, primary screen, cell-based, P. falciparum Indochina, OD700, 1 h (AID 1154); conditions: P. falciparum Indochina infected RBC osmotic lysis, higher = more signal, called active from +8 up or from −8 down
Write no unit; give the number alone.

Query string: Query: z-score; subject: O=C1O[C@H](c2ccccc2)[C@H](c2ccccc2)N2[C@H]1[C@@H](C(=O)O)[C@]1(C(=O)Nc3ccc(C#CC4(O)CCCCCC4)cc31)[C@H]2c1ccc(O)cc1
Result string: -0.224

Query string: Query: z-score; subject: COCCOC(=O)N1C(=O)[C@@]2(c3cc(C#CC4=CCCCC4)ccc31)[C@H](c1ccc(O)cc1)N1[C@H](c3ccccc3)[C@H](c3ccccc3)OC(=O)[C@H]1[C@@H]2C(=O)NC[C@H](O)c1ccccc1
Result string: 1.8

Query string: Query: z-score; subject: COCC(=C=CC[C@@H](O)c1cccc(OCCO)c1)CCO
Result string: 2.3

Query string: Query: z-score; subject: [N-]=[N+]=NCc1ccccc1[C@@H]1OC(c2ccc(OCCCO)cc2)=N[C@]1(Cc1ccccc1N=[N+]=[N-])C(=O)NCCN1CCOCC1
Result string: 16.5

Query string: Query: z-score; subject: C=C[C@@H](C)[C@@H](OC(=O)Nc1ccc(SC)cc1)c1ccc(OCCO)cc1
Result string: 29.1

Query string: Query: z-score; subject: COC(=O)[C@@]1(Cc2ccccc2CN=[N+]=[N-])N=C(c2ccc(OCCCO)cc2)O[C@H]1c1ccccc1CN=[N+]=[N-]
Result string: 21.8

Query string: Query: z-score; subject: COc1ccc([Si](C)(C)[C@H]2[C@H](CC(=O)N3Cc4ccccc4C[C@H]3CO)O[C@@]3(C(=O)N(Cc4ccc(N5C(=O)c6cccc7cccc5c67)cc4)c4ccccc43)[C@@H]2C)cc1
Result string: 4.25

Query string: Query: z-score; subject: COc1ccc(C#Cc2ccc3c(c2)[C@]2(C(=O)N3)[C@H](c3ccc(OCCO)cc3)N3[C@H](c4ccccc4)[C@H](c4ccccc4)OC(=O)[C@H]3[C@@H]2C(=O)N2CCc3cc(OC)c(OC)cc3C2)cc1
Result string: 3.24

Query string: Query: z-score; subject: C=C(CCCC)C(=O)CC[C@H](OC(=O)c1ccccc1-c1ccccc1C(=O)O)c1ccccc1OCCO
Result string: 8.58

Query string: Query: z-score; subject: C=CCC(OC(C)=O)[C@@H]1[C@@H](N(Cc2ccc(-c3ccccc3)cc2)C(=O)c2ccc(C)cc2)c2cc(OCCCO)ccc2N1C(=O)Cc1ccc2ccccc2c1 (stereo partly drawn)
Result string: -0.0828

Query string: Query: z-score; subject: COc1ccc(NC(=O)O[C@H]2[C@@H]3OC(=O)[C@H](Cc4cccc(Br)c4)C/C=C/C[C@@H](Cc4cccc(Br)c4)C(=O)O[C@H]3[C@@H](OC)O[C@@H]2CO)cc1
Result string: 0.469

Query string: Query: z-score; subject: CS(=O)(=O)CCOC(=O)C1=CC(CCCO)=CC(C2CC2)N(Cc2cccc(OC(F)(F)F)c2)C=C1C(=O)OCCS(C)(=O)=O (stereo not drawn)
Result string: 2.65

Query string: Query: z-score; subject: C=C[C@H](C)[C@H](OC(=O)Nc1ccc(OC)cc1)c1ccc(OCCO)cc1
Result string: 12.4

* * *

assay: small-molecule binders of probe aNOTCH3, primary screen, biochemical, small-molecule microarray, 635/667 nm fluorescence (AID 1120); details: higher = more signal;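 note: probe is a biotin-tagged antibody raised against NOTCH3 rather than NOTCH3 protein; score merges spot fluorescence near 667 nm with spot signal to noise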
Would you mind labelling by composite z-score? At or over 0.1 is 1, under is 0.

Query string: Dear colleague, could you confirm whether [N-]=[N+]=Nc1ccccc1C[C@@]1(C(=O)O)N=C(c2ccc(OCCCO)cc2)O[C@@H]1c1ccccc1N=[N+]=[N-] has composite z-score at or above 0.1?
Result string: 1

Query string: Dear colleague, could you confirm whether [N-]=[N+]=NCc1ccccc1C[C@]1(C(=O)N2CCOCC2)COC(c2ccc(OCCCO)cc2)=N1 has composite z-score at or above 0.1?
Result string: 1

Query string: Dear colleague, could you confirm whether O=C1[C@@]23C=C(Br)[C@H](C[C@@H]2COC3)[C@@]12CO2 has composite z-score at or above 0.1?
Result string: 1

Query string: Dear colleague, could you confirm whether COc1cc(NN2C(C(O)c3cc(OC)c(OC)c(OC)c3)C=CC3C(=O)N(c4ccccc4)C(=O)C32)cc(OC)c1OC (stereo not drawn) has composite z-score at or above 0.1?
Result string: 1

Query string: Dear colleague, could you confirm whether CC(C)CCC[C@@H](C)[C@H]1CC[C@@]2(C)C3=C(CC[C@]12C)[C@@]1(C)CC[C@H](OC(=O)c2ccccc2)C(C)(C)C1CC3 (stereo partly drawn) has composite z-score at or above 0.1?
Result string: 0

Query string: Dear colleague, could you confirm whether CC(C)C(=C=CC[C@@H](O)c1cccc(OCCO)c1)C[C@@H](O)COCc1ccccc1 has composite z-score at or above 0.1?
Result string: 0

Query string: Dear colleague, could you confirm whether COC(=O)[C@@]1(Cc2ccccc2CN=[N+]=[N-])N=C(c2ccc(OCCCO)cc2)O[C@H]1c1ccccc1 has composite z-score at or above 0.1?
Result string: 1

Query string: Dear colleague, could you confirm whether CCCCC(=C=CC[C@H](O)c1ccc(OCCO)cc1)C[C@H](O)COCc1ccccc1 has composite z-score at or above 0.1?
Result string: 0

* * *

test: MM1S cell viability effects, profiling panel, calcein-AM fluorescence, 48 h, basal (AID 1165); conditions: higher = more signal;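 note: viability of MM1S multiple myeloma cells under basal unstimulated conditions; test concentration not given here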
measured property: z-score
Write no unit; give the number alone.

Query string: Query: z-score; subject: C[C@@]12COC[C@]13C=C(Br)[C@H](C2)[C@@]1(CO1)C3=O
Result string: -1.75

Query string: Query: z-score; subject: C=C(COC)C(=O)CC[C@@H](OC(=O)c1cccnc1)c1ccccc1OCCO
Result string: -3.38

Query string: Query: z-score; subject: C=CCC(OC(C)=O)[C@@H]1[C@@H](N(Cc2cccc3ccccc23)C(=O)c2cccc3ccccc23)c2cc(OCCCO)ccc2N1C(=O)c1ccc2ccccc2c1 (some centres not stated)
Result string: -0.189

Query string: Query: z-score; subject: COCC1=C2[C@@H](CCc3ccccc3)OB(O)C[C@@H]2[C@@H]2C(=O)N(C)C(=O)[C@@H]2C1
Result string: -0.145

Query string: Query: z-score; subject: C=CCC(OC(C)=O)[C@@H]1[C@@H](N(Cc2cccc3ccccc23)C(=O)Cc2ccc(F)cc2)c2cc(OCCCO)ccc2N1C(=O)c1ccc(-c2ccccc2)cc1 (some centres not stated)
Result string: 0.867

Query string: Query: z-score; subject: O=C(O)[C@H]1C[C@H]2C(=O)N[C@@H](Cc3ccccc3)C(=O)N2[C@H]1c1cccc(OCCO)c1
Result string: -3.41

Query string: Query: z-score; subject: C=CCNC(=O)[C@@H]1[C@H]2C(=O)O[C@H](c3ccccc3)[C@H](c3ccccc3)N2[C@H](c2ccc(OCCO)cc2)[C@@]12C(=O)N(C(=O)OCCOC)c1ccc(C#CCCO)cc12
Result string: 0.485

* * *

test: PSAC antagonists in infected red cells, primary screen, cell-based, P. falciparum Indochina, OD700, 1 h (AID 1154); settings: P. falciparum Indochina infected RBC osmotic lysis, higher = more signal, called active from +8 up or from −8 down
Can you tell me z-score for the items I'm about to list?
Write no unit; give the number alone.

Query string: Query: z-score; subject: CN(C)CCCCNC(=O)[C@H]1C[C@H]2C(=O)N[C@@H](CCCC[N+](C)(C)C)C(=O)N2[C@H]1c1ccc(O)cc1
Result string: 1.32

Query string: Query: z-score; subject: COCCOC(=O)N1C(=O)[C@@]2(c3cc(C#CCC(C(=O)OC)C(=O)OC)ccc31)[C@H](C(=O)NC[C@H](O)c1ccccc1)[C@H]1C(=O)O[C@H](c3ccccc3)[C@H](c3ccccc3)N1[C@@H]2c1ccc(OCCO)cc1
Result string: 7.02

Query string: Query: z-score; subject: COCCOC(=O)N1C(=O)[C@@]2(c3cc(C#CC4(O)CCCCCC4)ccc31)[C@H](C(=O)N1CCN(c3ncccn3)CC1)[C@H]1C(=O)O[C@H](c3ccccc3)[C@H](c3ccccc3)N1[C@@H]2c1ccccc1OCCO
Result string: 1.57

Query string: Query: z-score; subject: O=C(CS)NCCCCCNC(=O)[C@@H]1C[C@@H]2C(=O)N[C@@H](Cc3ccccc3)C(=O)N2[C@@H]1c1cccc(OCCO)c1
Result string: 2.5

Query string: Query: z-score; subject: COc1ccc(C(=O)Nc2cccc(CN3C(=O)[C@]4(O[C@H](CCn5cc([C@H](O)c6ccccc6)nn5)[C@@H]([Si](C)(C)c5ccc(OC)cc5)[C@@H]4C)c4ccccc43)c2)cc1
Result string: 1.23

Query string: Query: z-score; subject: COC(=O)[C@@]1(Cc2ccccc2CN=[N+]=[N-])N=C(c2ccc(OCCCO)cc2)O[C@H]1c1ccccc1
Result string: 23.6

Query string: Query: z-score; subject: Cc1ccc(C(C)CC(O)C2C=CC3C(=O)N(c4ccccc4)C(=O)C3N2Nc2ccc(C#N)cc2)o1 (stereo not drawn)
Result string: 7.4

Query string: Query: z-score; subject: C=C(/C(=C/C[C@@H](OC(C)=O)c1ccc(OCCO)cc1)c1cc(C(=O)OC)ccc1OC)C(C)C
Result string: 8.16

Query string: Query: z-score; subject: CCOC(=O)C1=CC[C@@H](c2ccccc2)N(S(=O)(=O)c2ccc(C)cc2)[C@H]1C=Cc1ccccc1
Result string: 1.92

Query string: Query: z-score; subject: COC(=O)[C@@]1(Cc2ccc(F)cc2)[C@H]2c3cc(C(=O)N(C)C)n(Cc4c(CO)[nH]cc(C)c4=O)c3C[C@H]2CN1C(=O)c1ccccc1
Result string: 0.756

Query string: Query: z-score; subject: COc1cccc(/C=C(\C#N)C(=O)Nc2c(C)n(C)n(-c3ccccc3)c2=O)c1
Result string: 2.13

Query string: Query: z-score; subject: COc1ccc([Si](C)(C)[C@H]2[C@H](CCO)O[C@@]3(C(=O)N(Cc4ccccc4)c4ccc(N5C(=O)c6ccccc6Oc6ccccc65)cc43)[C@@H]2C)cc1
Result string: 3.46

Query string: Query: z-score; subject: COC(=O)C1=CC(CCCO)=CC(C)N(Cc2cccc(OC(F)(F)F)c2)C=C1C(=O)OC (stereo not drawn)
Result string: 2.3

Query string: Query: z-score; subject: CCOC(=O)C1=CCC(c2ccccc2)N(S(=O)(=O)c2ccc([N+](=O)[O-])cc2)C1 (stereo not drawn)
Result string: 2.62

Query string: Query: z-score; subject: COC(=O)[C@@]1(Cc2ccccc2)[C@H]2c3cc(C(=O)N(C)C)n(CCn4cc([N+](=O)[O-])nc4C)c3C[C@H]2CN1C(=O)c1ccccc1
Result string: -0.25

Query string: Query: z-score; subject: O=C(N1CCOCC1)[C@@]1(CCS(=O)(=O)c2ccccc2)N=C(c2ccc(OCCCO)cc2)O[C@H]1c1ccccc1
Result string: 30.2

Query string: Query: z-score; subject: C=C[C@@H](C)[C@H](O)c1ccc(OCCO)cc1
Result string: 1.79

Query string: Query: z-score; subject: [N-]=[N+]=NC[C@H](Cc1ccccc1)NC(=O)c1ccccc1
Result string: 0.0465

Query string: Query: z-score; subject: CC(CO)N1C(=O)[C@@H]2[C@H]3C(=O)OCC=C[C@H]3OC23C=CCN(c2ccc(Cl)cc2)C(=O)[C@@H]13 (stereo partly drawn)
Result string: -0.499

Query string: Query: z-score; subject: C=C(CCCC)C(=O)CC[C@H](OC(C)=O)c1ccc(OCCO)cc1
Result string: 11.3

Query string: Query: z-score; subject: COCCOC(=O)N1C(=O)[C@@]2(c3cc(C#Cc4ccc(OC)cc4)ccc31)[C@H](c1ccc(OCCO)cc1)N1[C@H](c3ccccc3)[C@H](c3ccccc3)OC(=O)[C@H]1[C@@H]2C(=O)Nc1nc2ccccc2s1
Result string: 4.12

Query string: Query: z-score; subject: CCN(CC)c1ccc(N2CC=CC34O[C@@H]5/C=C\CCC(C)OC(=O)C5[C@H]3C(=O)N(C(C)CO)[C@@H]4C2=O)cc1 (stereo partly drawn)
Result string: 0.946

Query string: Query: z-score; subject: NC(=O)[C@H]1[C@@H]2C(=O)O[C@@H](c3ccccc3)[C@@H](c3ccccc3)N2[C@@H](c2ccc(O)cc2)[C@]12C(=O)Nc1ccccc12
Result string: 3.33

Query string: Query: z-score; subject: C=C(COC)C(=O)CC[C@H](OC(C)=O)c1ccc(OCCO)cc1
Result string: 4.92

Query string: Query: z-score; subject: COc1ccc(C(O)C2C=CC3C(=O)N(c4ccccc4)C(=O)C3N2Nc2ccccc2)cc1 (stereo not drawn)
Result string: 10.9

Query string: Query: z-score; subject: CC(C)[C@H]1NC(=O)[C@@]23C(=O)N[C@@H](Cc4ccccc4)C2[C@H](C)[C@@]2(C)O[C@H]2C3/C=C/CCC/C=C/CNC(=O)[C@H](Cc2ccccc2)NC1=O (stereo partly drawn)
Result string: 1.18

Query string: Query: z-score; subject: C=CCOC(=O)[C@H]1[C@@H]2C(=O)O[C@@H](c3ccccc3)[C@@H](c3ccccc3)N2[C@@H](c2ccc(OCCOC(=O)[C@H]3C[C@H]4C(=O)N[C@@H](CCCCNC(C)=O)C(=O)N4[C@H]3c3cccc(OCCO)c3)cc2)[C@]12C(=O)Nc1ccc(I)cc12
Result string: 1.81

Query string: Query: z-score; subject: CCOC(=O)C1=C[C@@H](C(C)(C)C)N(S(=O)(=O)c2ccc(C)cc2)[C@H]1c1cccc(Cl)c1
Result string: 1.26
